target: PI3K-α (Homo sapiens); experiment: PI3K-alpha fluorescence polarization assay; details: read-out: IC50 PI3Kα; listed as 712
Sequence (P42336 whole entry, species assumed): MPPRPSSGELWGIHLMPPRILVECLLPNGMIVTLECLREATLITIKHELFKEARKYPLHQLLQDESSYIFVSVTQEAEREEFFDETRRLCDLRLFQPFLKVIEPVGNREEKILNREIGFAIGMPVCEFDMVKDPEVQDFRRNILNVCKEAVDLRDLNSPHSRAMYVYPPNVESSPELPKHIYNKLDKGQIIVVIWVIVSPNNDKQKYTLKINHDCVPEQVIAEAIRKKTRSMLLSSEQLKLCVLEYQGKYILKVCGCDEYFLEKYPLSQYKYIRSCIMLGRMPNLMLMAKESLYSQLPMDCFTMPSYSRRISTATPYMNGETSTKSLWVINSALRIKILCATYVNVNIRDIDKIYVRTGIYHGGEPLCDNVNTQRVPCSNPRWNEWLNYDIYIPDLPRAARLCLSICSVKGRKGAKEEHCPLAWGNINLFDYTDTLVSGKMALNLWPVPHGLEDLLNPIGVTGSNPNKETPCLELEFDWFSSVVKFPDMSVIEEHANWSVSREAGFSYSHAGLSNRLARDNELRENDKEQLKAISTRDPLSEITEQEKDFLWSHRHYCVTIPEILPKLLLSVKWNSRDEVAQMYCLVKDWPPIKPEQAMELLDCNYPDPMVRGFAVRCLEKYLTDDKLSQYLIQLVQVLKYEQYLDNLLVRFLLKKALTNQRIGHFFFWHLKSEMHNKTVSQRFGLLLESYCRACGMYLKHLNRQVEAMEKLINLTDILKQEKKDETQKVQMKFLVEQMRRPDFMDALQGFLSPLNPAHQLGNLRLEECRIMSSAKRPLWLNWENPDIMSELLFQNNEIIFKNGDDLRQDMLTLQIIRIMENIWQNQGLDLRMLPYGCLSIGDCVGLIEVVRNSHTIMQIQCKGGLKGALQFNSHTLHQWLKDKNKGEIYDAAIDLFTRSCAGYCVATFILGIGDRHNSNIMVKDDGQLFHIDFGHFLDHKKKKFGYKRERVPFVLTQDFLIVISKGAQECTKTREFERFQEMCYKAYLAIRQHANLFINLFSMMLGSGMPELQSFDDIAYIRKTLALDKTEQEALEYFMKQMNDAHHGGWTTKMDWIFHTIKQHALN
Sequence (P27986 whole entry partner, species assumed): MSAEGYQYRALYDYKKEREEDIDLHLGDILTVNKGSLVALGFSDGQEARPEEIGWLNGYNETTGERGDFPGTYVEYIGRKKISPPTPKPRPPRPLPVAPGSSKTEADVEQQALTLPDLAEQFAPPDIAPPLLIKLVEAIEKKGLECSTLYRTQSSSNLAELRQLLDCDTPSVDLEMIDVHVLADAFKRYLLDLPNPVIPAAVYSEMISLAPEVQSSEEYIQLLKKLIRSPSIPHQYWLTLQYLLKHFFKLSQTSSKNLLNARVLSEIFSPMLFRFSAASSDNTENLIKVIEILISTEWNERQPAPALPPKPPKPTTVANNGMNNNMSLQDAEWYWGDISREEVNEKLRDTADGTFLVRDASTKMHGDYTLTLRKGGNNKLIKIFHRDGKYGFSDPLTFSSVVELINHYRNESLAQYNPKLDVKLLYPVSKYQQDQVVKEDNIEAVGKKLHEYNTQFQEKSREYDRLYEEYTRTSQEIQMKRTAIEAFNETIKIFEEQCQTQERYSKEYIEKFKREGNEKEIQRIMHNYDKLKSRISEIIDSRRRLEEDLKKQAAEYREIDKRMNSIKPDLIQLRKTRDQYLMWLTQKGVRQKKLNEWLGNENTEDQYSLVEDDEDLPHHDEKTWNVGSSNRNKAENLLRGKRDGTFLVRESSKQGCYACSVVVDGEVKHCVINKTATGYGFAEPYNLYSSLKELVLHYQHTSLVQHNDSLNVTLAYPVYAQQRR
pIC50: −log10 of the molar value.
observable: pIC50

{"compound": "O=C(Nc1ccncc1)Nc1ccc(-c2nc(-c3cnc4ccccc4c3)nc(N3CCOCC3)n2)cc1", "measuredTarget": "PI3K-α (Homo sapiens)", "recordedMeasurement": 8.02}

###

Consider the following molecules and their measured IC50 readings.
target: Human mTOR (FLAG-TOR) (Homo sapiens); test: mTOR kinase assay (DELFIA format, purified enzyme); format: biochemical; conditions: read-out: IC50 mTOR
Sequence (P42345 1360-2549 limits assumed): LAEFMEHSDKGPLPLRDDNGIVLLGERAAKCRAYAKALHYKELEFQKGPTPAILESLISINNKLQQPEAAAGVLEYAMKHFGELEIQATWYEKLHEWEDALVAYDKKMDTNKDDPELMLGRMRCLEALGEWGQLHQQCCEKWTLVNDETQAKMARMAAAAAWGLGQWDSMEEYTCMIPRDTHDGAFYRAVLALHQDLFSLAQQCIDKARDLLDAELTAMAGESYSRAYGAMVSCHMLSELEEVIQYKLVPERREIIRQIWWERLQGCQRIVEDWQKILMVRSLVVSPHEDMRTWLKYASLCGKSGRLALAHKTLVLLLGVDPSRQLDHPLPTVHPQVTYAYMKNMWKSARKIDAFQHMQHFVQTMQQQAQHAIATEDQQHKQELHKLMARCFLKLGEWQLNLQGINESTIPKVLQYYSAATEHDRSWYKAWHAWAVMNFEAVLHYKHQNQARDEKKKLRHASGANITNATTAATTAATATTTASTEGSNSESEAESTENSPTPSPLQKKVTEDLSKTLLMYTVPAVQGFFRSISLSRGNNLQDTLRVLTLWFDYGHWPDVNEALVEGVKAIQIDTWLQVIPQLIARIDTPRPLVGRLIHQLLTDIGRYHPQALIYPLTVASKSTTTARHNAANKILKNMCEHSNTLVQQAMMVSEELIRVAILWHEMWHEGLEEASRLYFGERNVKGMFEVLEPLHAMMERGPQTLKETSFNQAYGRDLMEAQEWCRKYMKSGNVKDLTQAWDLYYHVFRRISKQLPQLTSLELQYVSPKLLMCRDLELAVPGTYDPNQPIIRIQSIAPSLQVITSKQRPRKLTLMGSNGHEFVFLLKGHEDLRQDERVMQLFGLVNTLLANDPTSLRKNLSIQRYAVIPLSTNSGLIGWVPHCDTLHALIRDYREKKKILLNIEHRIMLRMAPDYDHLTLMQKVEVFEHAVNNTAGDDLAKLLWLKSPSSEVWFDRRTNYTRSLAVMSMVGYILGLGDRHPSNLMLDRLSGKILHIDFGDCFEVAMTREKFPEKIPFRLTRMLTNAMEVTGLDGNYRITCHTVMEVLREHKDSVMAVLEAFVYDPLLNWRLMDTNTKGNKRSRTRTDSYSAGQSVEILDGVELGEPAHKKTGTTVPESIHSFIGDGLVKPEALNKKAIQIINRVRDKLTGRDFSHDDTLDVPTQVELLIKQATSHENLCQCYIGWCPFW
observable: IC50 (nM)

{"molecule": "CNC(=O)Nc1ccc(-c2nc(-c3ccc(NC(=O)Nc4cccnc4)cc3)nc(N3CCOCC3)n2)cc1 [Example 467]", "measuredTarget": "Human mTOR (FLAG-TOR) (Homo sapiens)", "observable": "IC50", "resultUnit": "nM", "valueRelationSign": "<", "recordedMeasurement": 1}
{"molecule": "CN(C)C1CCN(C(=O)c2ccc(NC(=O)Nc3ccc(-c4nc(C5=CCOCC5)nc(N5CCOCC5)n4)cc3)cc2)CC1 [Example 283]", "measuredTarget": "Human mTOR (FLAG-TOR) (Homo sapiens)", "observable": "IC50", "resultUnit": "nM", "valueRelationSign": "=", "recordedMeasurement": 3.1}
{"molecule": "O=C(Nc1ccc(CCO)cc1)Nc1ccc(-c2nc(N3CCOCC3)nc(N3CCOCC3)n2)cc1 [Example 50]", "measuredTarget": "Human mTOR (FLAG-TOR) (Homo sapiens)", "observable": "IC50", "resultUnit": "nM", "valueRelationSign": "=", "recordedMeasurement": 2}
{"molecule": "CCN1CCN(C(=O)c2ccc(NC(=O)Nc3ccc(-c4nc(N5CCCCC5)nc(N5CCOCC5)n4)cc3)cc2)CC1 [Example 596]", "measuredTarget": "Human mTOR (FLAG-TOR) (Homo sapiens)", "observable": "IC50", "resultUnit": "nM", "valueRelationSign": "=", "recordedMeasurement": 13}

Values were extracted from patent US20090304692A1.
